conditions: 308.2 K; 101.33 kPa; Liquid; conductivity meter
# key: entry, value: electrical conductivity

compound | unit-string | electrical conductivity
CCCCn1cc[n+](C)c1.COS(=O)(=O)[O-] [1-butyl-3-methylimidazolium methyl sulfate] | S/m | 0.276
CCCCn1cc[n+](C)c1.O=S(=O)([O-])C(F)(F)F [1-butyl-3-methylimidazolium trifluoromethanesulfonate] | S/m | 0.286
CCCCn1cc[n+](C)c1.F[P-](F)(F)(F)(F)F [1-butyl-3-methylimidazolium hexafluorophosphate] | S/m | 0.149
CCCCn1cc[n+](C)c1.F[B-](F)(F)F [1-butyl-3-methylimidazolium tetrafluoroborate] | S/m | 0.364

---

experiment: molar heat capacity at constant pressure; conditions: 343.2 K; 101.33 kPa; Liquid; Small sample (50 mg) DSC
# key: entry, value: molar heat capacity at constant pressure

compound | molar heat capacity at constant pressure / J/K/mol
CCCCn1cc[n+](C)c1.F[B-](F)(F)F [1-butyl-3-methylimidazolium tetrafluoroborate] | 386.5
CCCCn1cc[n+](C)c1.COS(=O)(=O)[O-] [1-butyl-3-methylimidazolium methyl sulfate] | 393
CCCCn1cc[n+](C)c1.F[P-](F)(F)(F)(F)F [1-butyl-3-methylimidazolium hexafluorophosphate] | 434.8
CCCCn1cc[n+](C)c1.O=S(=O)([O-])C(F)(F)F [1-butyl-3-methylimidazolium trifluoromethanesulfonate] | 461.26

---

test: molar heat capacity at constant pressure; conditions: 318.2 K; 101.33 kPa; Liquid; Small sample (50 mg) DSC

compound | molar heat capacity at constant pressure / J/K/mol
CCCCn1cc[n+](C)c1.F[B-](F)(F)F [1-butyl-3-methylimidazolium tetrafluoroborate] | 375.2
CCCCn1cc[n+](C)c1.O=S(=O)([O-])C(F)(F)F [1-butyl-3-methylimidazolium trifluoromethanesulfonate] | 449.73
CCCCn1cc[n+](C)c1.COS(=O)(=O)[O-] [1-butyl-3-methylimidazolium methyl sulfate] | 382.98
CCCCn1cc[n+](C)c1.F[P-](F)(F)(F)(F)F [1-butyl-3-methylimidazolium hexafluorophosphate] | 423.43

---

experiment: molar heat capacity at constant pressure; conditions: 338.2 K; 101.33 kPa; Liquid; Small sample (50 mg) DSC
observable: molar heat capacity at constant pressure (J/K/mol)

molecule | observable | unit-string | value-measured
CCCCn1cc[n+](C)c1.O=S(=O)([O-])C(F)(F)F [1-butyl-3-methylimidazolium trifluoromethanesulfonate] | molar heat capacity at constant pressure | J/K/mol | 458.38
CCCCn1cc[n+](C)c1.F[B-](F)(F)F [1-butyl-3-methylimidazolium tetrafluoroborate] | molar heat capacity at constant pressure | J/K/mol | 384.24
CCCCn1cc[n+](C)c1.F[P-](F)(F)(F)(F)F [1-butyl-3-methylimidazolium hexafluorophosphate] | molar heat capacity at constant pressure | J/K/mol | 431.96
CCCCn1cc[n+](C)c1.COS(=O)(=O)[O-] [1-butyl-3-methylimidazolium methyl sulfate] | molar heat capacity at constant pressure | J/K/mol | 393

Source listed as the NIST ThermoML archive (doi:10.1016/j.tca.2008.10.015).
